system: T-cell; assay: CD25 cell surface staining on T-cells stimulated with anti-CD3 antibody alone (Biological Example 2); format: cell-based, human; settings: Homo sapiens, T-cell; 1 μM Cbl-b inhibitor; fold change over baseline (anti-CD3/anti-CD28 stimulated T-cells without inhibitor); read-out: CD25 staining Anti-CD3 stimulation
In this section we review reported fold induction at 1 µM values for a set of molecules.

molecule: Cn1cnnc1CC1(c2cccc(N3Cc4c(cc(CN5CCC[C@@H](F)C5)cc4C(F)(F)F)C3=O)c2)COC1
fold induction at 1 µM: > 1
--
molecule: Cn1cnnc1CC1(c2cccc(N3Cc4c(cc(CN5CCOC6(CCC6)C5)cc4C(F)(F)F)C3=O)c2)COC1
fold induction at 1 µM: > 1
--
molecule: Cn1cnnc1CC1(c2cccc(N3Cc4c(cc(CN5Cc6ccc(F)cc6C5)cc4C(F)(F)F)C3=O)c2)COC1
fold induction at 1 µM: > 1
--
molecule: Cn1cnnc1CC1(c2cccc(N3Cc4c(cc(CN5CCC(C)(F)CC5)cc4C(F)(F)F)C3=O)c2)COC1
fold induction at 1 µM: > 1
--
molecule: Cc1cc2c(c(C3CC3)n1)CN(c1cccc(C3(C(F)(F)c4nncn4C)COC3)c1)C2=O
fold induction at 1 µM: 0.601 to 0.8
--
molecule: Cn1cnnc1CC1(c2cccc(N3Cc4c(cc(C5=CCOC5)cc4C(F)(F)F)C3=O)c2)COC1
fold induction at 1 µM: 0.801 to 1
--
molecule: CCOC1CCCN(Cc2cc3c(c(C(F)(F)F)c2)CN(c2cccc(C4(Cc5nncn5C)COC4)c2)C3=O)C1 (centres unmarked)
fold induction at 1 µM: > 1
--
molecule: C[C@@H](c1cc2c(c(C(F)(F)F)c1)CN(c1cccc(C3(C(F)(F)c4nncn4C)COC3)c1)C2=O)N1CC[C@H](F)C1
fold induction at 1 µM: > 1
--
molecule: Cc1cc(C(=O)Nc2cccc(C3(Cc4nncn4C)COC3)c2)n2nccc2n1
fold induction at 1 µM: 0.601 to 0.8
--
molecule: C[C@@H]1CN(Cc2cc3c(c(C(F)(F)F)c2)CN(c2cccc(C4(Cc5nncn5C)COC4)c2)C3=O)CCO1 [Example 663b]
fold induction at 1 µM: > 1
--
molecule: Cc1cc(C(=O)Nc2cc(C3CC3)cc(C3(Cc4nncn4C)COC3)c2)nc(C2CC2)n1
fold induction at 1 µM: > 1
--
molecule: Cn1cnnc1CC1(c2cccc(N3Cc4c(cc(N5CCOC5=O)cc4C(F)(F)F)C3=O)c2)COC1
fold induction at 1 µM: 0.601 to 0.8
--
molecule: Cc1cc(C(=O)Nc2cccc(C3([C@@H](F)c4nncn4C)COC3)c2)nc(C2CC2)n1 [Example 669b]
fold induction at 1 µM: > 1
--
molecule: CC(c1cc2c(c(C3CC3)n1)CN(c1cccc(C3(Cc4nncn4C)COC3)c1)C2=O)N1CC2(CC2)C1 (centres unmarked)
fold induction at 1 µM: 0.601 to 0.8
--
molecule: Cn1cnnc1CC1(c2cccc(NC(=O)c3cc(N4CC(C(F)F)C4)nc(C4CC4)n3)c2)COC1
fold induction at 1 µM: 0.801 to 1
--
molecule: Cn1cnnc1CC1(c2cccc(N3Cc4c(cc(CN5Cc6cccc(F)c6C5)cc4C(F)(F)F)C3=O)c2)COC1
fold induction at 1 µM: > 1
--
molecule: Cn1cnnc1CC1(c2cccc(N3Cc4c(cc(CN5CC[C@H](c6ccccc6)C5)cc4C(F)(F)F)C3=O)c2)COC1 [Example 662a]
fold induction at 1 µM: 0.801 to 1
--
molecule: Cn1cnnc1CC1(c2cccc(N3Cc4c(cc(CN5CCC(F)(F)CC5)cc4C(F)(F)F)C3=O)c2)COC1
fold induction at 1 µM: > 1
--
molecule: Cn1cnnc1CC1(c2cccc(N3Cc4c(cc(CN5CCCCC(F)C5)cc4C(F)(F)F)C3=O)c2)COC1 (centres unmarked)
fold induction at 1 µM: > 1
--
molecule: C[C@H](Cc1nncn1C)c1cc(N[C@H]2CC[C@H]2O)nc(N2Cc3c(cccc3C(F)(F)F)C2=O)c1 [Example 689b]
fold induction at 1 µM: < 0.6
--
molecule: Cn1cnnc1CC1(c2cccc(N3Cc4c(cc(N5CC(C(F)F)C5)cc4C(F)(F)F)C3=O)c2)COC1
fold induction at 1 µM: 0.801 to 1
--
molecule: Cn1cnnc1CC1(c2cccc(N3Cc4c(cc(C5CC5)nc4C4CC4)C3=O)c2)COC1
fold induction at 1 µM: 0.801 to 1
--
molecule: Cn1cnnc1[C@H](F)C1(c2cccc(N3Cc4c(cc(CN5C6CCCC5CC6)cc4C(F)(F)F)C3=O)c2)COC1 [Example 675b]
fold induction at 1 µM: > 1
--
molecule: Cc1cc(C(=O)Nc2cccc(C3(Cc4nncn4C)CCC3)c2)nc(C2CC2)n1
fold induction at 1 µM: > 1
--
molecule: CN1C[C@H]2C[C@@H]1CN2c1cc2c(c(C(F)(F)F)c1)CN(c1cccc([C@@](C)(F)C(F)(F)c3nncn3C)c1)C2=O
fold induction at 1 µM: > 1
--
molecule: Cn1cnnc1[C@@H](F)C1(c2cccc(N3Cc4c(cc(CN5CCC(F)CC5)cc4C(F)(F)F)C3=O)c2)COC1 [Example 670a]
fold induction at 1 µM: > 1
--
molecule: Cn1cnnc1CC1(c2cccc(N3Cc4c(cc(CN5CCC6(CC5)CC6)cc4C(F)(F)F)C3=O)c2)COC1
fold induction at 1 µM: > 1
--
molecule: CN1CC2CC(C1)N2c1cc2c(c(C(F)(F)F)c1)CN(c1cccc([C@@](C)(F)C(F)(F)c3nncn3C)c1)C2=O
fold induction at 1 µM: > 1
--
molecule: Cn1cnnc1CC1(c2cccc(N3Cc4c(cc(CN5CCC6(CC6)C5)cc4C(F)(F)F)C3=O)c2)CCC1
fold induction at 1 µM: > 1
